System: affinity purified β2GPI-dependent antiphospholipid antibody
Experiment: Competitive inhibition ELISA: recombinant β2GPI proteins compete for antibody binding to coated full length recombinant β2GPI
Design: species or system human
Conditions: Ab 6644
measurementKind: Max (maximum inhibition observed at concentrations tested) (%)
Your answer is read as %, so omit the unit and give the number.

Examples from the recorded data:
molecule | reportedResult
---45: recombinant β2GPI deletion mutant with domains 4, 5 (protein) GREVKCPFPSRPDNGFVNYPAKPTLYYKDKATFGCHDGYSLDGPEEIECTKLGNWSAMPSCKASCKLPVKKATVVYQGERVKIQEKFKNGMLHGDKVSFFCKNKEKKCSYTEDAQCIDGTIEVPKCFKEHSSLAFWKTDASDVKPCGHHHHHH | 10
12---: recombinant β2GPI deletion mutant with domains 1 and 2 (protein) GRTCPKPDDLPFSTVVPLKTFYEPGEEITYSCKPGYVSRGGMRKFICPLTGLWPINTLKCTPRVCPFAGILENGAVRYTTFEYPNTISFSCNTGFYLNGADSAKCTEEGKWSPELPVCAPIIGHHHHHH | 45

Now turn to the next molecule.
Incoming: Data request, read-out Max (maximum inhibition observed at concentrations tested), for 1----: recombinant β2GPI protein with domain 1 only (SEQ ID NO:4 region), His6 tail (protein) GRTCPKPDDLPFSTVVPLKTFYEPGEEITYSCKPGYVSRGGMRKFICPLTGLWPINTLKCTPRVGHHHHHH
Outgoing: 90
